// data source = ChEMBL document CHEMBL3286216

System: Human immunodeficiency virus 1
Test: Antiviral activity against HIV1 RES056 harboring RT K103N,Y181C double mutant infected in human MT4 cells assessed as inhibition of virus-induced cytopathicity measured 5 days post viral infection by MTT assay
Type: functional, organism-based
Details: Human immunodeficiency virus 1, RES056, MT4, 120 h

{"columns": ["Compound", "EC50"],
 "data": [
  ["Cc1cc(C(Cl)c2ccc(C(C)(C)C)cc2)nc(Nc2ccc(C#N)cc2)n1 (centres undefined)", "> 30.3 µM"],
  ["N#Cc1ccc(Nc2nccc(C(Cl)c3cccc(Br)c3)n2)cc1 (centres undefined)", "8.2 µM"],
  ["N#Cc1ccc(Nc2nccc(C(Cl)c3cccc(F)c3)n2)cc1 (centres undefined)", "> 36.8 µM"],
  ["Cc1cc(C(Cl)c2ccc(F)cc2)nc(Nc2ccc(C#N)cc2)n1 (centres undefined)", "> 31.1 µM"],
  ["COc1ccc(C(Cl)c2ccnc(Nc3ccc(C#N)cc3)n2)cc1 (centres undefined)", "> 33.6 µM"],
  ["Cc1ccc(C(Cl)c2ccnc(Nc3ccc(C#N)cc3)n2)cc1 (centres undefined)", "> 49.7 µM"],
  ["N#Cc1ccc(Nc2nccc(C(Cl)c3cccc(Cl)c3)n2)cc1 (centres undefined)", "> 24.3 µM"],
  ["N#Cc1ccc(Nc2nccc(C(Br)c3ccccc3)n2)cc1 (centres undefined)", "> 69 µM"],
  ["Cc1ccc(C(Br)c2ccnc(Nc3ccc(C#N)cc3)n2)cc1 (centres undefined)", "> 31.5 µM"],
  ["Cc1cnc(Nc2ccc(C#N)cc2)nc1C(Cl)c1ccc(F)cc1 (centres undefined)", "> 30.8 µM"],
  ["N#Cc1ccc(Nc2nccc(C(Cl)c3cccc4ccccc34)n2)cc1 (centres undefined)", "> 11.3 µM"],
  ["N#Cc1ccc(Nc2nccc(C(Cl)c3ccccc3)n2)cc1 (centres undefined)", "> 37.8 µM"],
  ["Cc1cnc(Nc2ccc(C#N)cc2)nc1C(Cl)c1ccc(C(C)(C)C)cc1 (centres undefined)", "> 28.7 µM"],
  ["Cc1cc(C#N)cc(C)c1Oc1nc(Nc2ccc(C#N)cc2)nc(N)c1Br [ETRAVIRINE]", "0.0147 µM"]
]}

---

The entries below come with measured selectivity ratio values attached.
Assay: Selectivity index, ratio CC50 for human MT4 cells to EC50 for HIV 1 3B
Conditions: MT4 cells
Readout Kind: selectivity ratio

{"columns": ["Compound", "Readout Kind", "Relation Operator", "Numeric Value"],
 "data": [
  ["Cc1ccc(C(Cl)c2ccnc(Nc3ccc(C#N)cc3)n2)cc1 (stereo not given)", "selectivity ratio", "=", 713],
  ["CC(C)Nc1cccnc1N1CCN(C(=O)c2cc3cc(NS(C)(=O)=O)ccc3[nH]2)CC1", "selectivity ratio", ">", 511],
  ["Cc1cc(C(Cl)c2ccc(C(C)(C)C)cc2)nc(Nc2ccc(C#N)cc2)n1 (stereo not given)", "selectivity ratio", "=", 173],
  ["Cc1cc(C(Cl)c2ccc(F)cc2)nc(Nc2ccc(C#N)cc2)n1 (stereo not given)", "selectivity ratio", "=", 5],
  ["CC(C)(C)c1ccc(C(Cl)c2ccnc(Nc3ccc(C#N)cc3)n2)cc1 (stereo not given)", "selectivity ratio", "=", 193],
  ["N#Cc1ccc(Nc2nccc(C(Cl)c3ccccc3)n2)cc1 (stereo not given)", "selectivity ratio", "=", 2340],
  ["N#Cc1ccc(Nc2nccc(C(Cl)c3cccc4ccccc34)n2)cc1 (stereo not given)", "selectivity ratio", "=", 56],
  ["N#Cc1ccc(Nc2nccc(C(Cl)c3cccc(F)c3)n2)cc1 (stereo not given)", "selectivity ratio", "=", 27],
  ["Cc1cnc(Nc2ccc(C#N)cc2)nc1C(Cl)c1ccc(F)cc1 (stereo not given)", "selectivity ratio", "=", 4],
  ["N#Cc1ccc(Nc2nccc(C(Cl)c3ccc(F)cc3)n2)cc1 (stereo not given)", "selectivity ratio", "=", 19]
]}

---

Tested on: Human immunodeficiency virus 1
Assay: Antiviral activity against HIV1 3B infected in human MT4 cells assessed as inhibition of virus-induced cytopathicity measured 5 days post viral infection by MTT assay
Format: functional, organism-based
Details: Human immunodeficiency virus 1, 3B, MT4, 120 h
Quick rule for you: EC50 under 200 nM gets Yes, anything else gets No.

{"columns": ["Compound", "Cat"],
 "data": [
  ["N#Cc1ccc(Nc2nccc(C(Cl)c3cccc(Br)c3)n2)cc1 (stereo unspecified)", "Yes"],
  ["Cc1ccc(C(Br)c2ccnc(Nc3ccc(C#N)cc3)n2)cc1 (stereo unspecified)", "Yes"],
  ["N#Cc1ccc(Nc2nccc(C(Cl)c3cccc(F)c3)n2)cc1 (stereo unspecified)", "No"],
  ["N#Cc1ccc(Nc2nccc(C(Cl)c3ccc(Br)cc3)n2)cc1 (stereo unspecified)", "Yes"],
  ["Cc1cc(C(Cl)c2ccc(C(C)(C)C)cc2)nc(Nc2ccc(C#N)cc2)n1 (stereo unspecified)", "Yes"],
  ["Cc1cnc(Nc2ccc(C#N)cc2)nc1C(Cl)c1ccc(C(C)(C)C)cc1 (stereo unspecified)", "No"],
  ["Cc1cc(C(Cl)c2ccc(Br)cc2)nc(Nc2ccc(C#N)cc2)n1 (stereo unspecified)", "No"],
  ["N#Cc1ccc(Nc2nccc(C(Cl)c3ccc(F)cc3)n2)cc1 (stereo unspecified)", "No"],
  ["Cc1ccc(C(Cl)c2ccnc(Nc3ccc(C#N)cc3)n2)cc1 (stereo unspecified)", "Yes"]
]}

---

The entries below come with measured pEC50 values attached.
System: Human immunodeficiency virus 1
Test: Antiviral activity against HIV1 RES056 harboring RT K103N,Y181C double mutant infected in human MT4 cells assessed as inhibition of virus-induced cytopathicity measured 5 days post viral infection by MTT assay
Assay type: functional, organism-based
Details: Human immunodeficiency virus 1, RES056, MT4, 120 h
pEC50: −log10 of the molar value.
Readout Kind: pEC50

{"columns": ["Molecule", "Result"],
 "data": [
  ["Cc1cn([C@H]2C[C@H](N=[N+]=[N-])[C@@H](CO)O2)c(=O)[nH]c1=O", 8.15],
  ["Cc1cnc(Nc2ccc(C#N)cc2)nc1C(Cl)c1ccc(Br)cc1 (stereo not given)", "< 4.99"],
  ["N#Cc1ccc(Nc2nccc(C(Cl)c3ccc(F)cc3)n2)cc1 (stereo not given)", "< 4.45"],
  ["Cc1ccnc2c1NC(=O)c1cccnc1N2C1CC1", "< 4.82"],
  ["N#Cc1ccc(Nc2nccc(C(Cl)c3ccc(Br)cc3)n2)cc1 (stereo not given)", "< 4.49"],
  ["CC(C)(C)c1ccc(C(Cl)c2ccnc(Nc3ccc(C#N)cc3)n2)cc1 (stereo not given)", "< 4.48"],
  ["CC(C)Nc1cccnc1N1CCN(C(=O)c2cc3cc(NS(C)(=O)=O)ccc3[nH]2)CC1", "< 4.36"],
  ["N#Cc1ccc(Nc2nccc(C(Cl)c3ccc(Cl)cc3)n2)cc1 (stereo not given)", "< 4.44"],
  ["O=C1Nc2ccc(Cl)cc2[C@@](C#CC2CC2)(C(F)(F)F)O1", 6.57],
  ["Cc1cc(C(Cl)c2ccc(Br)cc2)nc(Nc2ccc(C#N)cc2)n1 (stereo not given)", "< 4.50"]
]}

---

Experiment: Selectivity index, ratio CC50 for human MT4 cells to EC50 for HIV 1 3B
Details: mt4
Readout Kind: selectivity ratio

{"columns": ["Compound", "Result"],
 "data": [
  ["O=C1Nc2ccc(Cl)cc2[C@@](C#CC2CC2)(C(F)(F)F)O1 [EFAVIRENZ]", "> 1140"],
  ["Nc1ccn([C@@H]2CS[C@H](CO)O2)c(=O)n1 [LAMIVUDINE]", "> 36"],
  ["Cc1cn([C@H]2C[C@H](N=[N+]=[N-])[C@@H](CO)O2)c(=O)[nH]c1=O [ZIDOVUDINE]", "> 17000"],
  ["Cc1cc(C#N)cc(C)c1Oc1nc(Nc2ccc(C#N)cc2)nc(N)c1Br [ETRAVIRINE]", 7380]
]}

---

Experiment: Selectivity index, ratio CC50 for human MT4 cells to EC50 for HIV 1 3B
Settings: MT4 cells

{"columns": ["Compound", "Relation Operator", "selectivity ratio"],
 "data": [
  ["Cc1cnc(Nc2ccc(C#N)cc2)nc1C(Cl)c1ccc(C(C)(C)C)cc1 (stereo not given)", "=", 16],
  ["N#Cc1ccc(Nc2nccc(C(Br)c3ccccc3)n2)cc1 (stereo not given)", "=", 348],
  ["N#Cc1ccc(Nc2nccc(C(Cl)c3ccc(Cl)cc3)n2)cc1 (stereo not given)", "=", 545],
  ["N#Cc1ccc(Nc2nccc(C(Cl)c3cccc(Cl)c3)n2)cc1 (stereo not given)", "=", 5160],
  ["Cc1cnc(Nc2ccc(C#N)cc2)nc1C(Cl)c1ccc(Br)cc1 (stereo not given)", "=", 95],
  ["N#Cc1ccc(Nc2nccc(C(Cl)c3cccc(Br)c3)n2)cc1 (stereo not given)", "=", 3110],
  ["Cc1cc(C(Cl)c2ccc(Br)cc2)nc(Nc2ccc(C#N)cc2)n1 (stereo not given)", "=", 75],
  ["N#Cc1ccc(Nc2nccc(C(Cl)c3ccc(Br)cc3)n2)cc1 (stereo not given)", "=", 875],
  ["Cc1ccnc2c1NC(=O)c1cccnc1N2C1CC1", ">", 163],
  ["Cc1ccc(C(Br)c2ccnc(Nc3ccc(C#N)cc3)n2)cc1 (stereo not given)", "=", 672]
]}
